test: Rat pharmacokinetic study, second study (dose response); type: in vivo, rats; conditions: plasma, po; rat p.o. 10 mg/kg, second study, 4 h; read-out: plasma indibulin
readout type: concentration at 4 h (ng/mL)

In [3]: df
Out[3]:
                                   molecule          readout_type  unit_text  test_result
0  O=C(Nc1ccncc1)C(=O)c1cn(Cc2ccc(Cl)cc2)c2ccccc12 [Bulk Crystalline Drug, indibulin]  concentration at 4 h      ng/mL            4

====

assay: Rat pharmacokinetic study, second study (dose response); assay type: in vivo, rats; conditions: plasma, po; Second Study, rat p.o. 10 mg/kg (60 mg/m^2)
readout type: Cmax (ng/mL)

>>> df
                                  structure  unit_text  test_result
0  O=C(Nc1ccncc1)C(=O)c1cn(Cc2ccc(Cl)cc2)c2ccccc12      ng/mL          8.6
